These measurements were taken from patent US20170253607A1.

Quick list: IC50 per entry.
# tgt: HIV-1 PR (Human immunodeficiency virus type 1 group M subtype B)
# test: HIV-protease inhibitory activity assay (FRET peptide substrate)
# condition-label: Test Example 1
Answer with a number only, understood to be in nM.

Consider the reported IC50 for these compounds:
[[record]]
compound = "COc1ccc(S(=O)(=O)N(CC(C)C)C[C@@H](O)[C@H](Cc2ccc(OCc3ccccc3C(=O)Nc3sc4c(c3C(=O)O)CC(C)(C)CC4)cc2)NC(=O)O[C@H]2CO[C@@]3(C)OCC[C@@H]23)cc1"
value_reported = 4.46

[[record]]
compound = "COc1ccc(S(=O)(=O)N(CC2CCC2)CC(O)C(Cc2ccc(NCc3cc(C(F)(F)F)ccc3-c3sc4c(c3C(=O)O)CC(C)(C)CC4)cc2)NC(=O)OC2COC3OCCC23)cc1 (centres unmarked)"
value_reported = 6.45

[[record]]
compound = "COc1ccc(S(=O)(=O)N(CC(C)C)C[C@@H](O)[C@H](Cc2ccc(NC[C@@H]3CCCC[C@@H]3c3sc4c(c3C(=O)O)CC(C)(C)CC4)cc2)NC(=O)O[C@H]2CO[C@@]3(C)OCC[C@@H]23)cc1"
value_reported = 2.07

[[record]]
compound = "CCCCCCCCCCCCCC(=O)Nc1ccc(CNc2ccc(CC(NC(=O)OC3COC4(C)OCCC34)C(O)CN(CC(C)C)S(=O)(=O)c3ccc(OC)cc3)cc2)c(-c2sc3c(c2C(=O)O)CC(C)(C)CC3)c1 (centres unmarked)"
value_reported = 3.07


// switching to the query compound
Per the reported HIV-1 PR (Human immunodeficiency virus type 1 group M subtype B) data, COc1ccc(S(=O)(=O)N(CC(C)C)CC(O)C(Cc2ccc(NCc3cc(C)cc(-c4sc5c(c4C(=O)O)CC(C)(C)CC5)c3)cc2)NC(=O)OC2COC3(C)OCCC23)cc1 (centres unmarked) has IC50 of 1.55

###

# test: Evaluation of total body clearance (CLtot), intravenous administration
# Type: in vivo, Sprague-Dawley (SD)
# condition-label: rat (SD), intravenous administration 0.5-10 mg/kg; CLtot = dose/AUC
measurement-name: rat_CLt
Quick note: number first, unit second.

Example compounds with recorded rat_CLt:
[[record]]
compound = "COc1ccc(S(=O)(=O)N(CC(C)C)CC(O)C(Cc2ccc(N(C)Cc3cc(N4CCN(C)CC4)ccc3-c3sc4c(c3C(=O)O)CC(C)(C)CC4)cc2)NC(=O)OC2COC3(C)OCCC23)cc1 (centres unmarked) [Compound I-701]"
measurement_name = "rat_CLt"
value_reported = "2.71 mL/min/kg"

[[record]]
compound = "COc1ccc(S(=O)(=O)N(CC(C)C)CC(O)C(Cc2ccc(N(C)Cc3cc(-c4sc5c(c4C(=O)O)CC(C)(C)CC5)co3)cc2)NC(=O)OC2COC3(C)OCCC23)cc1 (centres unmarked) [Compound I-448]"
measurement_name = "rat_CLt"
value_reported = "5.28 mL/min/kg"

[[record]]
compound = "COc1ccc(S(=O)(=O)N(CC(C)C)CC(O)C(Cc2ccc(OC3CCCN(c4ccccc4-c4sc5c(c4C(=O)O)CC(C)(C)CC5)C3)cc2)NC(=O)OC2COC3(C)OCCC23)cc1 (centres unmarked) [Compound I-102]"
measurement_name = "rat_CLt"
value_reported = "4.24 mL/min/kg"


Entry COc1ccc(S(=O)(=O)N(CC(C)C)CC(O)C(Cc2ccc(OCc3ncccc3-c3sc4c(c3C(=O)O)CC(C)(C)CC4)cc2)NC(=O)OC2COC3(C)OCCC23)cc1 (centres unmarked) [Compound I-88] , rat_CLt reported as 2.5 mL/min/kg

Reported rat_CLt for COc1ccc(S(=O)(=O)N(CC2CCC2)CC(O)C(Cc2ccc(NCc3cc(C(F)(F)F)ccc3-c3sc4c(c3C(=O)O)CC(C)(C)CC4)cc2)NC(=O)OC2COC3OCCC23)cc1 (centres unmarked) [Compound I-869] was 1.15 mL/min/kg
